Measured MFI at 100 nM values are reported for all entries that follow.
Target: T1, CD226 (Homo sapiens (Human), UniProt Q15762 19-336)
T1 sequence: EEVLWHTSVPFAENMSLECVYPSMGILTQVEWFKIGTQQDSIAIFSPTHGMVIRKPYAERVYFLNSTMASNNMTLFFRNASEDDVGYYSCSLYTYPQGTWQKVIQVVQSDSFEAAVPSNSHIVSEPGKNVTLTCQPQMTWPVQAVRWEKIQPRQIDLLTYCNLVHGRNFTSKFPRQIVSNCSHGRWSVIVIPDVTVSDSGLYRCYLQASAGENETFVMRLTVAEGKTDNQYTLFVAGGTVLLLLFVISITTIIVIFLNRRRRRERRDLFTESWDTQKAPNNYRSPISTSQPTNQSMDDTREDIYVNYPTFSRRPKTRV
Assay: flow cytometry, Fc fusion at 100 nM, CD226-transfected cells
Just the number please, in MFI, no unit attached.

In the examples that follow, each entry is paired with its recorded MFI at 100 nM.
binder | experimental_readout | val
variant CD155 IgV-Fc S52Q (Fc fusion, not shown: a dimerising Fc or GST) WPPPGTGDVVVQAPTQVPGFLGDSVTLPCYLQVPNMEVTHVSQLTWARHGEQGSMAVFHQTQGPSYSESKRLEFVAARLGAELRNASLRMFGLRVEDEGNYTCLFVTFPQGSRSVDIWLRVL | MFI at 100 nM | 2020
variant CD155 IgV-Fc S52R/Q62F/L104Q/G111R (Fc fusion, not shown: a dimerising Fc or GST) WPPPGTGDVVVQAPTQVPGFLGDSVTLPCYLQVPNMEVTHVSQLTWARHGERGSMAVFHQTFGPSYSESKRLEFVAARLGAELRNASLRMFGLRVEDEGNYTCQFVTFPQRSRSVDIWLRVL | MFI at 100 nM | 3170
variant CD155 IgV-Fc S42C (Fc fusion, not shown: a dimerising Fc or GST) WPPPGTGDVVVQAPTQVPGFLGDSVTLPCYLQVPNMEVTHVCQLTWARHGESGSMAVFHQTQGPSYSESKRLEFVAARLGAELRNASLRMFGLRVEDEGNYTCLFVTFPQGSRSVDIWLRVL | MFI at 100 nM | 2100
variant CD155 IgV-Fc Q62F/L104E/G111R (Fc fusion, not shown: a dimerising Fc or GST) WPPPGTGDVVVQAPTQVPGFLGDSVTLPCYLQVPNMEVTHVSQLTWARHGESGSMAVFHQTFGPSYSESKRLEFVAARLGAELRNASLRMFGLRVEDEGNYTCEFVTFPQRSRSVDIWLRVL | MFI at 100 nM | 2040
variant CD155 IgV-Fc Q62F (Fc fusion, not shown: a dimerising Fc or GST) WPPPGTGDVVVQAPTQVPGFLGDSVTLPCYLQVPNMEVTHVSQLTWARHGESGSMAVFHQTFGPSYSESKRLEFVAARLGAELRNASLRMFGLRVEDEGNYTCLFVTFPQGSRSVDIWLRVL | MFI at 100 nM | 2570

Q) GET /values?readout=MFI at 100 nM&item= variant CD155 IgV-Fc S52W (Fc fusion, not shown: a dimerising Fc or GST) WPPPGTGDVVVQAPTQVPGFLGDSVTLPCYLQVPNMEVTHVSQLTWARHGEWGSMAVFHQTQGPSYSESKRLEFVAARLGAELRNASLRMFGLRVEDEGNYTCLFVTFPQGSRSVDIWLRVL
A) 2040

Q) GET /values?readout=MFI at 100 nM&item= variant CD155 IgV-Fc L104Q (Fc fusion, not shown: a dimerising Fc or GST) WPPPGTGDVVVQAPTQVPGFLGDSVTLPCYLQVPNMEVTHVSQLTWARHGESGSMAVFHQTQGPSYSESKRLEFVAARLGAELRNASLRMFGLRVEDEGNYTCQFVTFPQGSRSVDIWLRVL
A) 3790

Q) GET /values?readout=MFI at 100 nM&item= variant CD155 IgV-Fc T45Q/S52L/L104E/G111R (Fc fusion, not shown: a dimerising Fc or GST) WPPPGTGDVVVQAPTQVPGFLGDSVTLPCYLQVPNMEVTHVSQLQWARHGELGSMAVFHQTQGPSYSESKRLEFVAARLGAELRNASLRMFGLRVEDEGNYTCEFVTFPQRSRSVDIWLRVL
A) 2390
